# system_tested: G protein-coupled receptor GPR35 (Rattus norvegicus) (UniProt Q33BM1)
# Sequence (Q33BM1 as listed by the source): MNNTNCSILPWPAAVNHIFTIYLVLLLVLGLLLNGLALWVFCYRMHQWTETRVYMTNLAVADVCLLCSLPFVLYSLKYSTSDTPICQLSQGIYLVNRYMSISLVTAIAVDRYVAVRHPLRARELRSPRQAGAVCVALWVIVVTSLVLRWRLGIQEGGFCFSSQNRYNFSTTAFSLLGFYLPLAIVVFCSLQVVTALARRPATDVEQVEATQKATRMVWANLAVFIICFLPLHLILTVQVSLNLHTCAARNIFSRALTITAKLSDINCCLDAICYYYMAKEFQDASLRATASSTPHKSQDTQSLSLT
# procedure_text: Agonist activity at rat GPR35 expressed in CHO cells assessed as induction of beta-arrestin recruitment at 10 uM after 90 mins by beta-galactosidase reporter gene assay
# Format: cell-based
value_type: Activity (%)
Please respond with the number in % and leave the unit unwritten.

Use these answered entries as a reference point.
{"chemical_structure": "Cc1ccc(C(=O)Nc2cccc3c(=O)cc(C(=O)O)oc23)cc1", "Activity, %": 43}
{"chemical_structure": "O=C(Nc1cccc2c(=O)cc(C(=O)O)oc12)c1ccc(Br)cc1", "Activity, %": 49}

Activity reading for CC(=O)Nc1cccc2c(=O)cc(C(=O)O)oc12 : 31

###

# system_tested: G-protein coupled receptor 35 (Homo sapiens)
# procedure_text: Agonist activity at human GPR35b expressed in CHO cells assessed as induction of beta-arrestin recruitment after 90 mins by beta-galactosidase reporter gene assay
# Type: cell-based
value_type: pEC50
Remember the convention: pEC50 equals -log10 of concentration in molar.

pEC50 reading for O=C(O)c1cc(=O)c2cc(F)cc(NC(=O)c3cccc(Cl)c3Cl)c2o1 : 6.06

pEC50 reading for O=C(Nc1cccc2c(=O)cc(C(=O)O)oc12)c1ccc(Br)cc1 : 6.17

pEC50 reading for O=C(O)c1cc(=O)c2cc(Br)cc(NC(=O)c3ccc(Cl)cc3Cl)c2o1 : 7.46

pEC50 reading for O=C(O)c1cc(=O)c2cc(F)cc(NC(=O)c3ccc(Cl)cc3Cl)c2o1 : 7.69

###

# system_tested: G-protein coupled receptor 35 (Homo sapiens, UniProt Q9HC97)
# Sequence (Q9HC97 whole entry): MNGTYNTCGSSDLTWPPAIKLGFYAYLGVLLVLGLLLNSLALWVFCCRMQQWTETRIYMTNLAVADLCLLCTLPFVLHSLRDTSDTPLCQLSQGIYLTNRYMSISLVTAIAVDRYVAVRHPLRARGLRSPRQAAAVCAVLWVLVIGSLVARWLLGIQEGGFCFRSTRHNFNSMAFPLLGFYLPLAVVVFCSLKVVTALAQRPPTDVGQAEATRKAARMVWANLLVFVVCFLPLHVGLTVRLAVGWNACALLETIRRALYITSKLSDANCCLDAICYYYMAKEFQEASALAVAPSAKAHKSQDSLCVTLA
# procedure_text: Agonist activity at human GPR35 expressed in CHO cells assessed as induction of beta-arrestin recruitment after 90 mins by beta-galactosidase reporter gene assay
# Assay type: cell-based
# label = true (1) if EC50 < 1000 nM else false (0)

These solved cases illustrate the format of a correct answer.
{"compound": "COC(=O)CC(=O)Nc1cccc2c(=O)cc(C(=O)O)oc12", "qualitative_label": "false (0)"}
{"compound": "COc1ccc(C(=O)Nc2cc(Br)cc3c(=O)cc(C(=O)O)oc23)cn1", "qualitative_label": "true (1)"}
{"compound": "O=C(O)c1cc(=O)c2cc(F)cc(NC(=O)c3ccc(Cl)cc3Cl)c2o1", "qualitative_label": "true (1)"}

Is 1000 nM strictly greater than the compound's reported EC50? compound: O=C(Nc1cc(Cl)cc2c(=O)cc(C(=O)O)oc12)c1ccccc1
true (1)

Is 1000 nM strictly greater than the compound's reported EC50? compound: Cc1ccc(C(=O)Nc2cccc3c(=O)cc(C(=O)O)oc23)cc1
false (0)

Is 1000 nM strictly greater than the compound's reported EC50? compound: O=C(O)c1cc(=O)c2cc(F)cc(NC(=O)c3cccc(Cl)c3Cl)c2o1
true (1)

###

# system_tested: G-protein coupled receptor 35 (Mus musculus) (UniProt Q9ES90)
# Sequence (Q9ES90 whole entry): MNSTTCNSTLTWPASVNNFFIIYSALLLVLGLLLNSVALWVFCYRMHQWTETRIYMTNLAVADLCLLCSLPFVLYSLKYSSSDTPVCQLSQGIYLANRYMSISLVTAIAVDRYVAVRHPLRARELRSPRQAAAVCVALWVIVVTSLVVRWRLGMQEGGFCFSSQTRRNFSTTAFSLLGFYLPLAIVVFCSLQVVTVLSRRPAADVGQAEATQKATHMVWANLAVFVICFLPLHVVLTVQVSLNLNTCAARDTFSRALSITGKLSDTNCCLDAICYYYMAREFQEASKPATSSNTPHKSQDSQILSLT
# procedure_text: Agonist activity at mouse GPR35 expressed in CHO cells assessed as induction of beta-arrestin recruitment at 10 uM after 90 mins by beta-galactosidase reporter gene assay
# Assay type: cell-based
value_type: Activity (%)
Please respond with the number in % and leave the unit unwritten.

Use these answered entries as a reference point.
{"chemical_structure": "Nc1cc(Br)cc2c(=O)cc(C(=O)O)oc12", "reported_result": 18}
{"chemical_structure": "O=C(Nc1cccc2c(=O)cc(C(=O)O)oc12)c1cccc([N+](=O)[O-])c1", "reported_result": 26}

Activity reading for N#Cc1ccc(C(=O)Nc2cc(Br)cc3c(=O)cc(C(=O)O)oc23)cc1 : 41

Activity reading for O=C(Nc1cc(Br)cc2c(=O)cc(C(=O)O)oc12)c1ccc(Cl)c(Cl)c1 : 29

Activity reading for O=C(Nc1cccc2c(=O)cc(C(=O)O)oc12)c1ccccc1 : 13

Activity reading for COc1ccc(C(=O)Nc2cc(F)cc3c(=O)cc(C(=O)O)oc23)cc1 : 30

###

# system_tested: G-protein coupled receptor 55 (Homo sapiens, UniProt Q9Y2T6)
# Sequence (Q9Y2T6 whole entry): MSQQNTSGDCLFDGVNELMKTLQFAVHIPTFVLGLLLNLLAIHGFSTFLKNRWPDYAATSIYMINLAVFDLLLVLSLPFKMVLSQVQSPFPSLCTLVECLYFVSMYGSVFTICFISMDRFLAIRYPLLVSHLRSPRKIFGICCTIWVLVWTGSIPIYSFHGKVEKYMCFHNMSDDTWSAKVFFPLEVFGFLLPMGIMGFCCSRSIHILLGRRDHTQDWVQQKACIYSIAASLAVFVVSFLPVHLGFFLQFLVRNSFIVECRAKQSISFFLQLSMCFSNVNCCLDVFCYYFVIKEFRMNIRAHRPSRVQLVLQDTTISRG
# procedure_text: Agonist activity at human GPR55 expressed in CHO cells assessed as induction of beta-arrestin recruitment at 10 uM after 90 mins by beta-galactosidase reporter gene assay relative to lysophosphotidylinositol
# Format: functional, cell-based
value_type: Activity (%)
Please respond with the number in % and leave the unit unwritten.

Use these answered entries as a reference point.
{"chemical_structure": "O=C(Nc1cc(Cl)cc2c(=O)cc(C(=O)O)oc12)c1ccccc1", "Activity / %": 20}
{"chemical_structure": "O=C(Nc1cccc2c(=O)cc(C(=O)O)oc12)c1cccc([N+](=O)[O-])c1", "Activity / %": 12}
{"chemical_structure": "O=C(O)c1cc(=O)c2cc(F)cc(NC(=O)c3cccc(Cl)c3Cl)c2o1", "Activity / %": 5}
{"chemical_structure": "CCCOc1ccc(C(=O)Nc2cccc3c(=O)cc(C(=O)O)oc23)cc1", "Activity / %": 10}
{"chemical_structure": "O=C(Nc1cccc2c(=O)cc(C(=O)O)oc12)c1ccc2ccccc2n1", "Activity / %": -6}
{"chemical_structure": "O=C(Nc1cc(F)cc2c(=O)cc(C(=O)O)oc12)c1ccc(Cl)c(Cl)c1", "Activity / %": 3}
{"chemical_structure": "COc1ccc(C(=O)Nc2cc(Br)cc3c(=O)cc(C(=O)O)oc23)c(Cl)c1", "Activity / %": 10}
{"chemical_structure": "COc1ccc(C(=O)Nc2cc(Br)cc3c(=O)cc(C(=O)O)oc23)nc1", "Activity / %": 4}
{"chemical_structure": "O=C(Nc1cc(Br)cc2c(=O)cc(C(=O)O)oc12)c1ccc(Cl)c(Cl)c1", "Activity / %": 16}
{"chemical_structure": "O=C(Nc1cccc2c(=O)cc(C(=O)O)oc12)c1ccc(Br)cc1", "Activity / %": 8}

Activity reading for COC(=O)CC(=O)Nc1cccc2c(=O)cc(C(=O)O)oc12 : -4

Activity reading for Nc1cccc2c(=O)cc(C(=O)O)oc12 : -11

Activity reading for Cc1ccc(C(=O)Nc2cccc3c(=O)cc(C(=O)O)oc23)cc1 : 6

Activity reading for O=C(Nc1cc(Br)cc2c(=O)cc(C(=O)O)oc12)c1ccc2c(c1)OCO2 : 9

###

Item-by-item account of inhibition
# system_tested: UniProt:Q9Y2T6
# procedure_text: Antagonist activity at human GPR55 expressed in CHO cells assessed as inhibition of lysophosphotidylinositol-induced beta-arrestin recruitment at 10 uM preincubated for 30 mins followed by lysophosphotidylinositol induction by beta-galactosidase reporter gene assay relative to control
# Format: functional, cell-based

{"chemical_structure": "O=C(Nc1cc(Cl)cc2c(=O)cc(C(=O)O)oc12)c1ccccc1", "inhibition": "23%"}

inhibition reading for CCOC(=O)c1cc(=O)c2cc(F)cc(NC(=O)c3ccc(OC)cc3)c2o1 : 26%

inhibition reading for Cc1cccc(C(=O)Nc2cccc3c(=O)cc(C(=O)O)oc23)c1 : 25%

inhibition reading for O=C(O)c1cc(=O)c2cc(Br)cc(NC(=O)c3ccc(Cl)cc3Cl)c2o1 : 43%

inhibition reading for O=C(Cc1ccccc1)Nc1cccc2c(=O)cc(C(=O)O)oc12 : 26%

inhibition reading for Cc1cccc(C(=O)Nc2cc(Br)cc3c(=O)cc(C(=O)O)oc23)c1 : 46%

###

# system_tested: G-protein coupled receptor 35 (Homo sapiens)
# procedure_text: Agonist activity at human GPR35 expressed in CHO cells assessed as induction of beta-arrestin recruitment after 90 mins by beta-galactosidase reporter gene assay
# Assay type: cell-based
value_type: log10 of EC50 (log10 of the value in nM)
Reminder: these figures are log10 of reported EC50, in nM before transformation.

Use these answered entries as a reference point.
{"molecule": "COc1ccc(C(=O)Nc2cc(Br)cc3c(=O)cc(C(=O)O)oc23)c(Cl)c1", "system_tested": "G-protein coupled receptor 35 (Homo sapiens)", "reported_result": 1.05}
{"molecule": "COc1ccc(C(=O)Nc2cc(Br)cc3c(=O)cc(C(=O)O)oc23)cc1", "system_tested": "G-protein coupled receptor 35 (Homo sapiens)", "reported_result": 1.08}
{"molecule": "Nc1cc(Br)cc2c(=O)cc(C(=O)O)oc12", "system_tested": "G-protein coupled receptor 35 (Homo sapiens)", "reported_result": 4.10}
{"molecule": "O=C(Nc1cccc2c(=O)cc(C(=O)O)oc12)c1ccc2ccccc2c1", "system_tested": "G-protein coupled receptor 35 (Homo sapiens)", "reported_result": 3.67}
{"molecule": "O=C(Nc1cccc2c(=O)cc(C(=O)O)oc12)c1ccccc1", "system_tested": "G-protein coupled receptor 35 (Homo sapiens)", "reported_result": 3.69}
{"molecule": "COc1ccc(C(=O)Nc2cc(Cl)cc3c(=O)cc(C(=O)O)oc23)cc1", "system_tested": "G-protein coupled receptor 35 (Homo sapiens)", "reported_result": 1.23}

Turning now to a further molecule:
log10 of EC50 reading for O=C(O)c1cc(=O)c2c(OCC(O)COc3cccc4oc(C(=O)O)cc(=O)c34)cccc2o1 [CROMOLYN SODIUM] : 3.10
